Target System: Arginase (Leishmania amazonensis) (UniProt O96394)
Experimental Details: Inhibition of recombinant Leishmania amazonensis arginase expressed in Escherichia coli assessed as reduction in urea production at 100 uM using L-arginine as substrate by Berthelot colorimetric method relative to control
Active and inactive are the calls of the source. The rule behind the calls is not given here.
Property Measured: inhibition

Use these answered entries as a reference point.
CC(=O)Nc1ccccc1C(F)(F)C(=O)NNc1ccccc1: > 70%
CC(=O)Nc1ccc(C)cc1C(F)(F)C(=O)NC(C)C: inactive
CC(=O)Nc1ccccc1C(F)(F)C(=O)NCc1ccccc1: > 70%
CC(=O)Nc1ccc(C)cc1C(F)(F)C(=O)NNc1ccccc1: > 70%
CC(=O)Nc1ccccc1C(F)(F)C(=O)Nc1ccc(Cl)cc1: inactive
CC(=O)Nc1ccccc1C(F)(F)C(=O)NNc1ccccn1: 8%
CC(=O)Nc1ccccc1C(F)(F)C(=O)NNc1ccc(C(F)(F)F)cc1: > 70%

// below: inhibition requested for another molecule
Lookup: Look at this molecule and give its reported inhibition. "CC(=O)Nc1ccccc1C(F)(F)C(=O)Nc1ccccc1"
Found: inactive

* * *

Target System: UniProt:O96394
Experimental Details: Inhibition of recombinant Leishmania amazonensis arginase expressed in Escherichia coli assessed as reduction in urea production using L-arginine as substrate by Berthelot colorimetric method relative to control
Experimental Setup: read-out: IC50
Property Measured: IC50 (µM)

CC(=O)Nc1ccccc1C(F)(F)C(=O)NNc1ccccc1: 12
CC(=O)Nc1ccccc1C(F)(F)C(=O)NNc1ccc(C(F)(F)F)cc1: 38

1: CC(=O)Nc1ccccc1C(F)(F)C(=O)NCc1ccccc1
2: CC(=O)Nc1ccc(C)cc1C(F)(F)C(=O)NNc1ccccc1
Lookup: Hi team, can someone confirm which has the larger IC50: 1 or 2 ? Thanks. To answer, give the label that identifies your chosen option.
Found: 1
(1: 37 µM, 2: 12 µM)

* * *

Target System: Arginase (Leishmania amazonensis)
Experimental Details: Competitive inhibition of recombinant Leishmania amazonensis arginase expressed in Escherichia coli assessed as reduction in urea production by measuring dissociation constant for enzyme-inhibitor complex using L-arginine as substrate by Berthelot colorimetric method based Dixon/Cornish-Bowden plot analysis relative to control
Property Measured: Ki (µM)

CC(=O)Nc1ccccc1C(F)(F)C(=O)NNc1ccc(C(F)(F)F)cc1: 26

I: CC(=O)Nc1ccccc1C(F)(F)C(=O)NNc1ccccc1
II: CC(=O)Nc1ccccc1C(F)(F)C(=O)NCc1ccccc1
III: CC(=O)Nc1ccc(C)cc1C(F)(F)C(=O)NNc1ccccc1
Lookup: Hey, quick one: sort these by Ki, largest value first please. Provide your answer as the labels ordered per the instruction.
Found: II, I, III
(II: 32 µM, I: 5.1 µM, III: 1.3 µM)
